Each item that follows carries a reported VNA titer.
- TARGET_OR_SYSTEM: HA of H3N2 A/Wisconsin/67/2005 (influenza A virus)
- EXPERIMENTAL_PROTOCOL: cell-based or functional assay

Worked examples follow.
- BINDER: "SD2020 (VHH) VHH: EVQLVESGGGLVQPGGSLRLSCAAAGGAFNRQLVAWFRQAPGKKREFVATVTTSGGSSYYADSVKGRFTISRDTAKNTVALQMNSLKAEDAAVYYCAARDSFTVAPYYPPESYAYWGQGTQVTVSS"
  VNA titer: "304 nM"
- BINDER: "SD1076 (VHH) VHH: EVQLVESGGGLVQAGGSLTLSCAGSGFAFSIATMGWYRQAPGKQRELVADITSGGSTNYADSVKGRFTISRDNAKNTVYLQMNSLKPEDTAVYYCNADSLATGWRQYSYWGKGTQVTVSS"
  VNA titer: "> 1000 nM"
- BINDER: "SD1049 (VHH) VHH: EVQLVESGGGLVQAGGSLRLSCAASGRTLSLYSVGWFRQAPGKEREFVATIGWNSGRTFYVDSMKGRFTISRDNAKNTVYLQMNDLKVEDTAVYYCAAAKGPLRLSNQADYWGQGTQVTVSS"
  VNA titer: "> 1000 nM"

Consider the additional binder presented here.
Please fill in: VNA titer reported for SD1070 (VHH) VHH: EVQLVESGGGLVQAGGSLRISCAASGRTFSIYSMGWFRQAPGKEREFVATIGWNSGRTFYADSMKERFTISADNARNTLYLQMNSLKFEDTAVYYCAAAKGPLRLSSQADYWGQGTQVTVSS = > 1000 nM
